Record: GI50 reported on M14.
Numbers only, in nM.

Illustrative cases are given below, each with its answer.
compound="NCCNc1nc2ccccc2c2c(=O)c3cc(Cl)ccc3sc12 [Compound N14]" endpointunit=nM reportedmeasurement=1830
compound="O=c1c2cc(Cl)ccc2sc2c(NCCCNCCO)nc3ccccc3c12 [Compound N19]" endpointunit=nM reportedmeasurement=1830

// below: GI50 requested for another compound
*Q* Request the reported GI50 associated with CN(C)CCNc1nc2ccccc2c2c(=O)c3cc(Cl)ccc3sc12 [Compound N7]
*A* 1850

* * *

tested on: IGROV1; assay type: cell-based; conditions: IGROV1; 10^−5 molar
Threshold 70%: Growth percent strictly smaller gives True, otherwise False.

Some solved cases for reference:
smilesrepr=CN(C)CCCNc1nc2ccccc2c2c(=O)c3cc(Cl)ccc3sc12 testedtarget=IGROV1 class=False
smilesrepr=O=c1c2cc(Cl)ccc2sc2c(NCc3ccccc3)nc3ccccc3c12 testedtarget=IGROV1 class=True
smilesrepr=O=c1c2cc(Cl)ccc2sc2c(NCCCNCCO)nc3ccccc3c12 testedtarget=IGROV1 class=True

*Q* Decide: Growth percent of O=c1c2cc(Cl)ccc2sc2c(NCc3ccc4c(c3)OCO4)nc3ccccc3c12 strictly below 70%?
*A* True

*Q* Consider next the compound COc1ccc(CCNc2nc3ccccc3c3c(=O)c4cc(Cl)ccc4sc23)cc1 in the same way.
*A* False

*Q* Consider next the compound O=c1c2cc(Cl)ccc2sc2c(NCCN3CCOCC3)nc3ccccc3c12 in the same way.
*A* False

*Q* Consider next the compound O=c1c2cc(Cl)ccc2sc2c(NC3CCCCC3)nc3ccccc3c12 in the same way.
*A* False
